B1: Dystrobrevin alpha, residues 235 to 294; numbered along this chain, Q9Y4J8 (parent)
chain: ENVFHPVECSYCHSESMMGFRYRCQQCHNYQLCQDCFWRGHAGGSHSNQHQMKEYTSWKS

# Variants of: B1
# method notes: abundance fitness (aPCA) (normalised: wild type 0, dead -1); higher = more abundant; growth selection in yeast, the domain comes from the species named
# assay context: Homo sapiens
Here, each record is paired with measured abundance fitness data.
Number only, please.

>>> readout_value("S10V")
-0.746
>>> readout_value("F20Q")
0.134
>>> readout_value("Q26G")
-0.277
>>> readout_value("Y22T")
-0.437
>>> readout_value("Y30Q")
-0.559
>>> readout_value("G40W")
-0.352
>>> readout_value("D35M")
-0.022
>>> readout_value("Q31F")
0.119
>>> readout_value("Y11M")
-0.055
>>> readout_value("Q31A")
-0.085

Input: Would you kindly share the measured abundance fitness for `M17S` ?
Output: 0.109
